# system: T1, CD3-specific binding domain (SEQ ID NO: 3) (biotinylated when used as immobilized SPR ligand (site not stated))
# T1 construct: also called α-CD3 DARPin
# T1 chain: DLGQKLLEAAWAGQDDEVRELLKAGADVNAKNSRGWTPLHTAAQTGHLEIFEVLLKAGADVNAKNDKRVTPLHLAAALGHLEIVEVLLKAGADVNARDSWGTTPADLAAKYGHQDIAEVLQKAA
# protocol_text: SPR (ProteOn), biotinylated CD3-specific binding domain immobilized, multi-trace 50-0.195 nM, 25 C
Quick reference for koff among some binders
In your response, put the unit directly after the numeric value.

binder: 2-in-1 DARPin 11 (SEQ ID NO: 6) (designed binder, N3C mono-domain; purified by its His-tag) DLDKKLLEAARAGQDDEVRILLKAGADVNAKDSTGWTPLHLAAPWGHPEIVEVLLKAGADVNAKDVYGWTPLHIAAASGHLEIVEVLLKAGADVNAKDWLGWTPLHLAASHGHLEIVEVLLKAGADVNAQDKSGKTPADLAARAGHQDIAEVLQKAA
koff: 0.00067 s⁻¹

binder: 2-in-1 DARPin 15 (SEQ ID NO: 9) (designed binder, N3C mono-domain; purified by its His-tag) DLDKKLLEAARAGQDDEVRILLKAGADVNAKDSTGWTPLHLAAPWGHPEIVEVLLKAGADVNAKDFQGWTPLHLAAAAGHLEIVEVLLKAGADVNAKDWLGWTPLHLAASHGHLEIVEVLLKAGADVNAQDKSGKTPADLAARAGHQDIAEVLQKAA
koff: 0.205 s⁻¹

Return koff for the following binder: 2-in-1 DARPin 20 (SEQ ID NO: 13) (designed binder, N4C mono-domain; purified by its His-tag) DLDKKLLEAARAGQDDEVRILLKAGADVNAKDSTGWTPLHLAAPWGHPEIVEVLLKAGADVNAKDFQGWTPLHLAAAAGHLEIVEVLLKAGADVNAKDVYGWTPLHLAAAAGHLEIVEVLLKAGADVNAKDWLGWTPLHLAASHGHLEIVEVLLKAGADVNAQDKSGKTPADLAARAGHQDIAEVLQKAA
0.0005 s⁻¹
